Below: a set of entries, each annotated with reported Protease activity upon dilution (%) immediately after preparation.
- ASSAYED TARGET: T1, alcalase (trade name "Alcalase 2.5L", Novozymes) (UniProt P00780)
- T1 sequence (looked up): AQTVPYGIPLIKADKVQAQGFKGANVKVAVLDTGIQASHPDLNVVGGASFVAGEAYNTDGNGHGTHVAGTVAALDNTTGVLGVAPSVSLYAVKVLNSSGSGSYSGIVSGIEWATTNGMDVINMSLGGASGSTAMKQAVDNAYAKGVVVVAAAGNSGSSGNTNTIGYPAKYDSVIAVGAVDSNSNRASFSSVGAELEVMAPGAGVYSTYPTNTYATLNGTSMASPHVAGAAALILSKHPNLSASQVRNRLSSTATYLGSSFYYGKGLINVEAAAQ
- EXPERIMENTAL PROTOCOL: cell-based or functional assay
ASSAY READOUT: Protease activity upon dilution (%) immediately after preparation

{"columns": ["BINDER", "RESULT UNITS", "RECORDED VALUE"],
 "data": [
  ["proteinaceous protease inhibitor of SEQ ID NO:31 (protein) MSSVEKKPEGVNTGAGDRHNLKTEWPELVGKSVEEAKKVILQDKSEAQIAVLPVGTIVTMEYRIDRVRLFVDKLDNIAQVPRVG", "%", 75],
  ["proteinaceous protease inhibitor of SEQ ID NO:30 (protein) MSSVEKKPEGVNTGAGDRHNLKTAWPELVGKSVEEAKKVILQDKSEAQIIVLPVGTIVTMEYRIDRVRLFVDKLDNIAQVPRVG", "%", 80],
  ["proteinaceous protease inhibitor of SEQ ID NO:20 (protein) TDTGDHHNQKTEWPELVGKSVEEAKKVILQDKSEAQIVVLPVGTIVTMEYRIDRVRLFVDSLDKIAQVPGVG", "%", 100],
  ["proteinaceous protease inhibitor of SEQ ID NO:3 (protein) TDTGDHHNQKTAWPELVGKSVEEAKKVILQDKSEAQIVVLPVGTIVTMEYRIDRVRLFVDSLDKIAQVPRVG", "%", 89],
  ["proteinaceous protease inhibitor of SEQ ID NO:15 (protein) TDTGDHHNQKTEWPELVGKSVEEAKKVILQDKSEAQIVVLPVGTIVTMEYRADRVRLFVDSLDKIAQVPRVG", "%", 80]
]}

// data source = patent US20140357543A1
